System: UniProt P00523 | Read-out: pIC50 | Origin: multiple publications
pIC50: −log10 of the molar value.
Lab note: compare pIC50 against 6. Equal or greater, write 1. Smaller, write 0.

{"SAMPLE_SMILES": "COc1cc(OC)cc(-c2cc3cnc(NCCCCO)cc3nc2NC(=O)NC(C)(C)C)c1", "CATEGORY_LABEL": 0}
{"SAMPLE_SMILES": "CC(=O)Nc1ncc2cc(-c3c(Cl)cccc3Cl)c(=O)n(C)c2n1", "CATEGORY_LABEL": 0}
{"SAMPLE_SMILES": "CCCC(=O)Nc1nc2nc(NCCCN3CCN(C)CC3)ncc2cc1-c1c(Cl)cccc1Cl", "CATEGORY_LABEL": 0}
{"SAMPLE_SMILES": "CC(C)Cn1nc(-c2ccc3nc(OC4CC4)ccc3c2)c2c(N)ncnc21", "CATEGORY_LABEL": 0}
{"SAMPLE_SMILES": "COc1ccc(NC(=O)Nc2nc3nc(NCCCN4CCN(C)CC4)ncc3cc2-c2c(Cl)cccc2Cl)cc1", "CATEGORY_LABEL": 1}
{"SAMPLE_SMILES": "CCOc1ccc2cc(-c3nn(CC(C)(C)O)c4ncnc(N)c34)ccc2c1", "CATEGORY_LABEL": 0}
{"SAMPLE_SMILES": "CCN(CC)CCCNc1ncc2cc(-c3c(Cl)cccc3Cl)c(NC(=O)NC(C)(C)C)nc2n1", "CATEGORY_LABEL": 1}
{"SAMPLE_SMILES": "Cn1c(=O)c(-c2c(Cl)cccc2Cl)cc2cnc(Nc3cccnc3)nc21", "CATEGORY_LABEL": 1}
